Item-by-item account of pKd
- Assayed system: FALZ (Homo sapiens)
- Experiment notes: Bromodomain binding assay: FALZ
pKd: −log10 of the molar value.

CCOc1cc(C(=O)N[C@H]2CC[C@H](O)CC2)ccc1Nc1cc2c(cn1)N(C)C(=O)c1ccccc1N2C = < 4.70

With those in mind, consider the next compound.
## Task Record `CCOc1cc(C(=O)N2CCC(N3CCCC3)CC2)ccc1Nc1cc2c(cn1)N(C)C(=O)c1ccccc1N2C` : what is its pKd with FALZ (Homo sapiens)?
## Result < 4.70

----------
- Assayed system: recombinant human ERK5 catalytic domain (Homo sapiens)
- Construct: Recombinant human ERK5 catalytic domain radiometric assays; purchased Reaction Biology, Corp (Malvern, Pa.), which ran the assay as a service
- Sequence (Q13164 55-347 limits assumed): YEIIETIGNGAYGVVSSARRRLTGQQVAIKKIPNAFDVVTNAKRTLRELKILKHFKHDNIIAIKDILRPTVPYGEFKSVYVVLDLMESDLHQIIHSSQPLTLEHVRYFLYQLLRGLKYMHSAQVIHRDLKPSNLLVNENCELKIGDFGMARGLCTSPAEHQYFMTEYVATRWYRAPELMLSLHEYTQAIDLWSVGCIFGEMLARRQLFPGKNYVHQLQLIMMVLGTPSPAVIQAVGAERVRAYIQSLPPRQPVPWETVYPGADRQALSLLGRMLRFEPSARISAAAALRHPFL
- Experiment notes: Recombinant human ERK5 radiometric (HotSpot) assay
- Format: biochemical
- Measurement setup: 10 μM ATP, 20 μM myelin basic protein substrate; read-out: rhERK5 IC50
- Experimental: In this example, potency of the compounds in recombinant human ERK5 was assayed. Recombinant human ERK5 catalytic domain radiometric assays were performed by Reaction Biology, Corp (Malvern, Pa.). The HotSpot radiometric assay is based on conventional filter-binding assays (Nature Biotechnology (2011) 29: 1039-1045). Compounds were tested at 20 μM down by ⅓ in a 10 point serial dilution series. […]
Quantity measured: IC50

Check out these entries, answers already filled in.
CCOc1cc(C(=O)N2CCN(C3CCN(C)CC3)CC2)ccc1Nc1cc2c(cn1)N(C)C(=O)c1ccccc1N2C = < 20 nM
CC(C)Oc1cc(C(=O)N2CCC[C@H](O)C2)ccc1Nc1cc2c(cn1)N(C)C(=O)c1ccccc1N2C = 50 to 200 nM
CCOc1cc(C(=O)N2CCN[C@@H](C)C2)ccc1Nc1cc2c(cn1)N(C)C(=O)c1ccccc1N2C = < 20 nM
CCOC1CCCC[C@H]1Nc1cc2c(cn1)N(C)C(=O)c1ccccc1N2C (stereo partly shown) = > 200 nM
CCOc1cc(C(=O)N2CCC[C@H](N3CCCC3)C2)ccc1Nc1cc2c(cn1)N(C)C(=O)c1ccccc1N2C = 50 to 200 nM
CCOc1cc(C(=O)N2CCC(N3CCN[C@H](C)C3)CC2)ccc1Nc1cc2c(cn1)N(C)C(=O)c1ccccc1N2C = 20 to 50 nM
CCOc1cc(C(=O)N2CCC[C@@H](C#N)C2)ccc1Nc1cc2c(cn1)N(C)C(=O)c1ccccc1N2C = > 200 nM
CCOc1cc(C(=O)N2CCN(C3CCN(C)CC3)CC2)ccc1Nc1cc2c(cn1)N(C)C(=O)c1c(F)ccc(F)c1O2 = 20 to 50 nM
CCOc1cc(C(=O)N2CCC(N3CCCNCC3)CC2)ccc1Nc1cc2c(cn1)N(C)C(=O)c1ccccc1N2C = < 20 nM
CN1C(=O)c2cccc(Cl)c2Oc2cc(N[C@H]3CC[C@H](O)CC3)ncc21 = > 200 nM

## Task Find the recorded IC50 belonging to `CCOc1cc(C(=O)N2CCN(C(C)=O)CC2)ccc1Nc1cc2c(cn1)N(C)C(=O)c1ccccc1N2C` and report it.
## Result 20 to 50 nM

## Task Find the recorded IC50 belonging to `CN1C(=O)c2cccc(Cl)c2N(C)c2cc(N[C@H]3CC[C@H](O)CC3)ncc21` and report it.
## Result > 200 nM

## Task Find the recorded IC50 belonging to `COc1cccc2c1N(C)c1cc(N[C@H]3CC[C@H](O)CC3)ncc1N(C)C2=O` and report it.
## Result 50 to 200 nM

## Task Find the recorded IC50 belonging to `CCOc1cc(C(=O)N[C@H]2CC[C@H](O)CC2)ccc1Nc1cc2c(cn1)N(C)C(=O)c1ccccc1O2` and report it.
## Result 50 to 200 nM

## Task Find the recorded IC50 belonging to `CN1C(=O)c2ccccc2Oc2cc(N[C@H]3CC[C@H](O)CC3)ncc21` and report it.
## Result > 200 nM

## Task Find the recorded IC50 belonging to `CN1CCN(C2CCN(C(=O)c3ccc(Nc4cc5c(cn4)N(C)C(=O)c4ccccc4N5C)c(OCCF)c3)CC2)CC1` and report it.
## Result < 20 nM

## Task Find the recorded IC50 belonging to `CCOc1cc(C(=O)N2CCC[C@H](OP(=O)(O)O)C2)ccc1Nc1cc2c(cn1)N(C)C(=O)c1ccccc1N2C` and report it.
## Result 20 to 50 nM

## Task Find the recorded IC50 belonging to `CN1C(=O)c2c(F)cccc2Oc2cc(N[C@H]3CC[C@H](O)CC3)ncc21` and report it.
## Result 50 to 200 nM

## Task Find the recorded IC50 belonging to `CCCOc1cc(C(=O)N2CCC[C@H](O)C2)ccc1Nc1cc2c(cn1)N(C)C(=O)c1ccccc1N2C` and report it.
## Result > 200 nM

The measurements presented in this section are drawn from patent US20170008888A1.
